Assay: qHTS for Inhibitors of human tyrosyl-DNA phosphodiesterase 1 (TDP1): qHTS in cells in absence of CPT; also: nearly all actives have a fitted effect of over 55% in size
Conditions: DT40 Tdp1-/- hTDP1 cells, no CPT, ATP luminescence, 48 h
In all, about 420,000 compounds went through this assay and about 64,000 (15%) were called active. Not shown: some 27% with an inconclusive outcome. Calls follow the shape of the dose curve; as a rule, active = well fitted inhibition curve with a large enough effect; inconclusive = small, poorly fitted or top-dose-only effect; inactive = flat fitted curve, though single readings scatter. The list is a sample of the results.
Classes used: active, inactive

COMPOUND: CCCc1ccc(-c2c(C)sc(NC(=O)c3ccnn3C)c2C#N)cc1
ASSIGNED CLASS: active
//
COMPOUND: Cc1ccc2[nH]c3c(=O)n(Cc4ccccn4)cnc3c2c1
ASSIGNED CLASS: inactive
//
COMPOUND: Cc1c(CCC(=O)N[C@@H](CC(C)C)C(=O)O)c(=O)oc2c(C)c3oc4c(c3cc12)CCCC4
ASSIGNED CLASS: inactive
//
COMPOUND: Cc1cc(NC(=O)c2cccc(Cl)c2)ccc1-c1cc2ccccc2oc1=O
ASSIGNED CLASS: active
//
COMPOUND: OCc1ccc(OCCCOc2cccc3cccnc23)cc1
ASSIGNED CLASS: inactive
//
COMPOUND: Cc1nc(CN(C)C(=O)CC2C(=O)NCCN2Cc2ccc(F)cc2)cs1 (stereo not drawn)
ASSIGNED CLASS: inactive
//
COMPOUND: CC(C)NC(=S)NN=C1CCCCCCCCCCC1
ASSIGNED CLASS: active
//
COMPOUND: CCC(=O)N1CCC(C)(C(=O)Nc2cc(OC)c(OC)c(OC)c2)C1 (stereo not drawn)
ASSIGNED CLASS: inactive
//
COMPOUND: Cc1ccc(C(=O)N/C(=C/C=C/c2ccccc2)C(=O)NCc2ccco2)cc1
ASSIGNED CLASS: inactive
//
COMPOUND: C=CCc1cccc2cc(C(=O)OCC)c(=O)oc12
ASSIGNED CLASS: inactive
//
COMPOUND: O=C(Nc1ccccc1)OCc1cn(-c2ccc(Cl)cc2)nn1
ASSIGNED CLASS: inactive
//
COMPOUND: CCC(=O)N1c2ccccc2NC2=C(C(=O)CCC2)C1c1ccco1 (stereo not drawn)
ASSIGNED CLASS: inactive
//
COMPOUND: Cc1ccc2cccc(OCCCOc3ccccc3CO)c2n1
ASSIGNED CLASS: active
//
COMPOUND: CNC[C@H]1OCc2cnnn2CCCC(=O)N([C@H](C)CO)C[C@@H]1C
ASSIGNED CLASS: inactive
//
COMPOUND: COc1ccccc1CNC(=O)COc1ccc(C)nc1[N+](=O)[O-]
ASSIGNED CLASS: inactive
//
COMPOUND: Cc1nc2nc3c(cn2n1)C(=O)CC(c1ccccc1)C3 (stereo not drawn)
ASSIGNED CLASS: inactive
//
COMPOUND: O=C1CC(c2ccccc2)CC2=C1C(c1ccco1)n1nc(C(F)(F)F)nc1N2 (stereo not drawn)
ASSIGNED CLASS: active
//
COMPOUND: NC(=O)[C@H]1CC2(CC(c3cccc(NC(=O)[C@H]4CCC(=O)N4)c3)=NO2)CN1C(=O)c1ccccc1C(=O)c1ccccc1 (stereo partly drawn)
ASSIGNED CLASS: inactive
//
COMPOUND: Cc1nc2ccccc2c(-c2ccccc2)c1C(=O)c1ccccc1
ASSIGNED CLASS: inactive
//
COMPOUND: O=C(Nc1ccon1)c1cccc(Cl)c1
ASSIGNED CLASS: inactive
//
COMPOUND: C/C(=C\C(=O)c1ccccc1)Nc1cccc(O)c1
ASSIGNED CLASS: inactive
//
COMPOUND: CC(C)Nc1nnc(SCC(=O)c2c[nH]c3ccccc23)s1
ASSIGNED CLASS: inactive
//
COMPOUND: Cc1ccc(CN2CCN(Cc3ccc(OCCO)cc3)CC2CCO)o1 (stereo not drawn)
ASSIGNED CLASS: inactive
